Read-out record for D(3) dopamine receptor (Homo sapiens): Ki
Assay metric: Ki (nM)

1. Cc1coc(-c2cccc(C(=O)N[C@H]3CC[C@H](CCN4CCc5ccc(OS(C)(=O)=O)cc5CC4)CC3)c2)n1 ... 3.16

[1] Cc1ncc(-c2cccc(C(=O)N[C@H]3CC[C@H](CCN4CCc5ccc(OS(C)(=O)=O)cc5CC4)CC3)c2)o1
[2] Cc1ccc2c(C(=O)N[C@H]3CC[C@H](CCN4CCc5ccc(S(C)(=O)=O)cc5CC4)CC3)cccc2n1
Prompt: Exercise: compare 1 and 2 ; which one has the greater Ki? Your answer should be the label of the entry you select.
Response: 2
(2: 3.98 nM, 1: 1.26 nM)
